// data source = patent US20070059364A1

recorded endpoint: melting point

Guide cases for melting point, answers given:
# molecule, result
records = [
    ("Cc1ccc2c(c1)COC(=O)N2C1CCN(CC(=O)Nc2ccccc2C(=O)c2ccccc2)CC1", "167 to 170 °C"),
    ("O=S(=O)(Nc1ccc2c(ccn2CCCN2CCCCC2)c1)c1cc(Cl)c(Cl)s1 [Example 51e]", "70 to 72 °C"),
    ("CN1CCC(c2c[nH]c3ccc(NS(=O)(=O)c4ccc(Cl)s4)cc23)CC1 [Example 14c]", "284 °C (dec.)"),
    ("Cl.O=C(CN1CCC(N2C(=O)OCc3cc(Cl)ccc32)CC1)Nc1ccccc1", "265 to 277 °C"),
    ("O=S(=O)(Nc1cccc2ccn(CCN3CCCC3)c12)c1cccc2ccccc12", "196 to 199 °C"),
    ("O=C(CN1CCC(N2C(=O)OCc3c(F)cccc32)CC1)Nc1ccc2[nH]c3ccccc3c2c1", "195 °C"),
]

Reported melting point of Cc1cccc2c1N(C1CCN(CC(=O)Nc3ccc(C(=O)c4ccccc4)cc3)CC1)C(=O)OC2.Cl : 217 °C

---

Structures can show the parent of a compound that is named as a salt.
recorded endpoint: melting point

Solved cases below.
# molecule, melting point
records = [
    ("Cc1ccc2c(c1)COC(=O)N2C1CCN(CC(=O)Nc2ccc3c(c2)C(O)c2ccccc2-3)CC1.Cl (stereo not shown)", "196 to 199 °C"),
    ("CN(C)CCn1ccc2cc(NS(=O)(=O)c3cccc4c(Cl)cccc34)ccc21 [Example 4e]", "172 to 174 °C"),
    ("CN(C)CCc1c[nH]c2ccc(NS(=O)(=O)c3cccc4nsnc34)cc12", "192 °C"),
    ("CCN(c1ccccc1)c1ccc(NC(=O)CN2CCC(N3C(=O)OCc4ccc(C)cc43)CC2)cc1", "199 °C"),
    ("CCN(CC)CCc1c[nH]c2ccc(NS(=O)(=O)c3cccc4ccccc34)cc12 (as salt: hydrochloride)", "255 to 257 °C"),
    ("O=S(=O)(Nc1ccc2[nH]cc(CCN3CCCC3)c2c1)c1cccc2ccccc12", "212 to 214 °C"),
]

So for Cl.N#Cc1ccc(NC(=O)CN2CCC(N3C(=O)OCc4cc(Cl)ccc43)CC2)cc1 , the logged melting point turned out to be 274 to 278 °C

---

Known melting point of a selection of compounds

For orientation, consider the following solved cases.
# molecular string, melting point
measured = [
    ("Cc1c(S(=O)(=O)Nc2ccc3[nH]cc(CCN(C)C)c3c2)sc2ccc(Cl)cc12", "226 to 227 °C"),
    ("CN(C)CCn1ccc2ccc(NS(=O)(=O)c3cc(Cl)cc(Cl)c3)cc21", "150 to 159 °C"),
]

As a next step, examine the compound that follows.
So for CCN(CC)CCc1c[nH]c2ccc(N(CC)S(=O)(=O)c3ccc4ccccc4c3)cc12 , the logged melting point turned out to be 49 to 50 °C
